Measured values drawn from patent US20240158350A1 for this set.

assay name: Single-dose oral pharmacokinetics in C57BL6 mice (plasma and brain)
Assay type: in vivo
condition parameters: male, C57BL6, mouse, brain, oral, 3 mg/kg; 2-h post-dose, range over animals; read-out: Psilocin concentration in the brain
endpoint name: concentration at 2 h

Reported concentration at 2 h for CN(C)CCc1c[nH]c2cccc(O)c12 [Psilocin, 4-hydroxy-N,N-dimethyltryptamine] : what is it?
40 to 78 ng/g
